Origin of the recorded values: patent US9937151B2

System: G(−) bacterial strains
Test: Dilution antimicrobial susceptibility tests (MIC, NCCLS agar dilution / broth dilution)
Format: cell-based, Gram-negative organisms
Conditions: strain #7 Enterobacter aerogenes; unit assumed
Property Measured: MIC (µg/mL)
Answer in µg/mL, number only, no unit symbol.

Here is how some molecules turned out for MIC.
| Molecule | MIC [µg/mL] |
| --- | --- |
| C[C@@H](O)C1C(=O)N2C(C(=O)O)=C(CN3CC[C@H](C(=O)NCC(N)=O)C3)[C@H](C)C12 (stereo partly drawn) | 2 |
| CN[C@H]1CCN(CC2=C(C(=O)O)N3C(=O)C([C@@H](C)O)C3[C@H]2C)C1 (stereo partly drawn) | 1 |
| C[C@@H](O)C1C(=O)N2C(C(=O)[O-])=C(C[N+]3(C)CC[C@H](NC(=N)N)C3)[C@H](C)C12 (stereo partly drawn) | 4 |

Briefly, MIC measured for C[C@@H](O)C1C(=O)N2C(C(=O)O)=C(CN3CC[C@@H](C(N)=O)C3)[C@H](C)C12 (stereo partly drawn) : 1

Recorded result, C[C@@H](O)C1C(=O)N2C(C(=O)O)=C(CN3CC[C@H](C#N)C3)[C@H](C)C12 (stereo partly drawn) , MIC: 0.5

GET /value?item= C[C@@H](O)C1C(=O)N2C(C(=O)O)=C(CN3CC[C@H](C(=O)NC(=N)N)C3)[C@H](C)C12 (stereo partly drawn) &field=MIC returns 4

Please fill in: MIC reported for CNC(=O)[C@H]1CCN(CC2=C(C(=O)O)N3C(=O)C([C@@H](C)O)C3[C@H]2C)C1 (stereo partly drawn) = 2

The recorded MIC for C[C@@H](O)C1C(=O)N2C(C(=O)O)=C(CN3CC[C@H](CNC(=N)N)C3)[C@H](C)C12 (stereo partly drawn) is 2

# molecule C[C@@H](O)[C@H]1C(=O)N2C(C(=O)O)=C(CN3CC(O)C(NC(=N)N)C3)[C@H](C)[C@H]12 (mixture of isomers) ; its MIC = 0.25

The reported value for CC(=O)N[C@H]1CCN(CC2=C(C(=O)O)N3C(=O)C([C@@H](C)O)C3[C@H]2C)C1 (stereo partly drawn) in terms of MIC is 4

Lab note: C[C@@H](O)C1C(=O)N2C(C(=O)O)=C(CN3CC[C@H](C(=O)NS(C)(=O)=O)C3)[C@H](C)C12 (stereo partly drawn) gave MIC of 1

C[C@@H](O)C1C(=O)N2C(C(=O)O)=C(CN3CC[C@H](NCC(N)=O)C3)[C@H](C)C12 (stereo partly drawn) has a reported MIC of 4

The molecule identified as C[C@@H](O)C1C(=O)N2C(C(=O)O)=C(CN3CC[C@H](NC(=N)N)C3)[C@H](C)C12 (stereo partly drawn) registered its MIC at 1

Given item C[C@@H](O)C1C(=O)N2C(C(=O)O)=C(CN3CC[C@@H](NC(=N)N)C3)[C@H](C)C12 (stereo partly drawn) , the value recorded as its MIC is 2

So for C[C@@H](O)C1C(=O)N2C(C(=O)O)=C(CN3CC[C@H](C(N)=O)C3)[C@H](C)C12 (stereo partly drawn) , the logged MIC turned out to be 1

Kindly note the recorded MIC for C[C@@H](O)C1C(=O)N2C(C(=O)O)=C(CN3CC[C@H](N(C)C)C3)[C@H](C)C12 (stereo partly drawn) , which is 1
